Hello, the source for this data is paper PMC5365654, in case you need it.

- measured-target: OXA-23 (Acinetobacter baumannii)
- Construct: hexahistidine (pOPINF, 3C-cleavable) (N, cleaved yes); made in house; host or cells: E. coli BL21(DE3)
- Sequence (Q9L4P2 18-273): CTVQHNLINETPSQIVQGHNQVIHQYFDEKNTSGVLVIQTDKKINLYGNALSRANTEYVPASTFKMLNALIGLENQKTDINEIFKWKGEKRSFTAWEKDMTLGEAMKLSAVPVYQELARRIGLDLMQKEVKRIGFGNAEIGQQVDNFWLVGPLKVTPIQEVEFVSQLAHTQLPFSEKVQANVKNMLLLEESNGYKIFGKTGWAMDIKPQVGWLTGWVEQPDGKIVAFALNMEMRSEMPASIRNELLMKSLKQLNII
- test-description: FC5 fluorogenic β-lactamase inhibition assay, OXA-23
- Format: biochemical
- condition: read-out: IC50, nM (mean ± SD) for OXA-23; preincubation 30 min; FC5 substrate
readout: IC50

q: So what's the measured IC50 for this one? CC1(C)[C@H](C(=O)O)N2C(=O)C[C@H]2S1(=O)=O [Sulbactam, sulbactam]
a: > 200000 nM

###

- System: P. aeruginosa PA12, ST 111
- test-description: Broth microtiter dilution MIC, PA12
- Format: cell-based
- condition: Pseudomonas aeruginosa, VIM-2 (B), with cyclic boronate 2 (10 mg/liter) supplementation, read-out: MIC (mg/liter) for β-lactam
Give measured MIC for each item. Keep answers brief.

Past entries and their recorded results:
CO/N=C(\C(=O)N[C@@H]1C(=O)N2C(C(=O)[O-])=C(C[N+]3(C)CCCC3)CS[C@H]12)c1csc(N)n1 [FEP, cefepime] : > 32 mg/L
CCN1CCN(C(=O)N[C@@H](C(=O)N[C@@H]2C(=O)N3[C@@H]2SC(C)(C)[C@@H]3C(=O)O)c2ccccc2)C(=O)C1=O : 64 mg/L
CO/N=C(\C(=O)N[C@@H]1C(=O)N2C(C(=O)O)=C(CSc3nc(=O)c(=O)[nH]n3C)CS[C@H]12)c1csc(N)n1 : > 32 mg/L
Cc1nnc(SCC2=C(C(=O)O)N3C(=O)[C@@H](NC(=O)Cn4cnnn4)[C@H]3SC2)s1 : > 16 mg/L
CC(C)(O/N=C(\C(=O)N[C@@H]1C(=O)N2C(C(=O)[O-])=C(C[n+]3ccccc3)CS[C@H]12)c1csc(N)n1)C(=O)O : > 16 mg/L

// below: MIC requested for another molecule
q: For CC1(C)S[C@@H]2[C@H](NC(=O)[C@H](N)c3ccccc3)C(=O)N2[C@H]1C(=O)O , what is its reported MIC?
a: > 16 mg/L
